TEST SYSTEM: NLRP3 inflammasome (Homo sapiens, UniProt Q96P20)
Construct: Monocytes were then isolated from the PBMCs using a human pan-monocyte isolation kit; endogenous in cells; host or cells: primary human monocytes isolated from PBMCs of human blood
Sequence (Q96P20 whole entry): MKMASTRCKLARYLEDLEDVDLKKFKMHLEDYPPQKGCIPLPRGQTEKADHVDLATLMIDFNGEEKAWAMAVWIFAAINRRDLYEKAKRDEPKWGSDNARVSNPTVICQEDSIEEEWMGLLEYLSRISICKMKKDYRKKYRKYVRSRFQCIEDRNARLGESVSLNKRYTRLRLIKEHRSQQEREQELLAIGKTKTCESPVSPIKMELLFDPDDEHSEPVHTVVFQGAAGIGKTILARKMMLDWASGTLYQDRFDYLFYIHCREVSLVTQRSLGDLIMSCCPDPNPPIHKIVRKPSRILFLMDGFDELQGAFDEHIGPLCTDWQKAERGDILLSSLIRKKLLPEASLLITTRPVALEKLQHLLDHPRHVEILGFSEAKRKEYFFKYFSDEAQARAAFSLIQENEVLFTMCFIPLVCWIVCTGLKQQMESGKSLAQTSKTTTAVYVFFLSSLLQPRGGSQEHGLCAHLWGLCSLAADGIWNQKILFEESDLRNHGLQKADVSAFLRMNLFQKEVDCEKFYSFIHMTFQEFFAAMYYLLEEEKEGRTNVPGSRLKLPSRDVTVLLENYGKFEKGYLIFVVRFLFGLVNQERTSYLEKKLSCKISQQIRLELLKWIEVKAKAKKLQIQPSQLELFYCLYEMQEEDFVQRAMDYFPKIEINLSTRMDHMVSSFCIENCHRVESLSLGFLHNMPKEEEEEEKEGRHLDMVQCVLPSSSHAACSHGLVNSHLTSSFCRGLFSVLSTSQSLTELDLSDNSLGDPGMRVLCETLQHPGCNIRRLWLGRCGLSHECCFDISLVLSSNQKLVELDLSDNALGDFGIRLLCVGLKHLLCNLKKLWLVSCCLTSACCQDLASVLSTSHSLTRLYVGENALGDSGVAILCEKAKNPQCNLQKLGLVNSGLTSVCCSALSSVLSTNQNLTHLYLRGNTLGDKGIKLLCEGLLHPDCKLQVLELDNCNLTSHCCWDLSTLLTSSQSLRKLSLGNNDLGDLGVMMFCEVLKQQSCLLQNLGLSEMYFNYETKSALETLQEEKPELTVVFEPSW
ASSAY PROCEDURE: Inhibitory activity against NLRP3 inflammasome in human monocytes (IL-1b ELISA)
Type: cell-based
CONDITION SUMMARY: human monocytes from PBMCs; compound 0.5 h, LPS 100 ng/mL 3.5 h, ATP 5 mM 45 min; IL-1b in supernatant by ELISA; (n = 2) cells are means of n tests; read-out: IL-1β inhibition (EC50)/nM
OBSERVABLE: EC50 (nM)

Use these answered entries as a reference point.
> print(dat)
                                   molecule  experimental.result
1  Cc1cc(N[C@@H]2CCCN(C)C2)nnc1-c1c(O)ccc2c1CCC2 [Compound 17]                 14.4
2  C[C@]1(O)C[C@@H](Nc2nnc(-c3ccc(C(F)(F)F)cc3O)c3cccnc23)C1                 2.51
3  Cc1cc(N[C@H]2C[C@@](C)(O)C2)nnc1-c1ccc2c(c1O)CCC2                 2.38
4  Cc1cc(N[C@H]2C[C@@](C)(O)C2)nnc1-c1ccc(C2CC2)cc1O                 17.4

[a] Cc1cc(N[C@@H]2CCCN(CCO)C2)nnc1-c1ccc(C2CC2)cc1O (racemic)
[b] C[C@]1(O)C[C@@H](Nc2nnc(-c3ccc(C(F)(F)F)cc3O)c3cnccc23)C1
[c] Cc1cc(N[C@@H]2CCCN(C)C2)nnc1-c1ccc(SC(F)(F)F)cc1O (racemic)
Please rank these molecules by EC50 in descending order. Order the labels as requested and give them as your answer. a, b, c
(a: 127 nM, b: 12.8 nM, c: 2.47 nM)

====

TEST SYSTEM: NLRP3 inflammasome (Homo sapiens)
Construct: Monocytes were then isolated from the PBMCs using a human pan-monocyte isolation kit; endogenous in cells; host or cells: primary human monocytes isolated from PBMCs of human blood
ASSAY PROCEDURE: Inhibitory activity against NLRP3 inflammasome in human monocytes (IL-1b ELISA)
Format: cell-based
CONDITION SUMMARY: human monocytes from PBMCs; compound 0.5 h, LPS 100 ng/mL 3.5 h, ATP 5 mM 45 min; IL-1b in supernatant by ELISA; (n = 2) cells are means of n tests; read-out: IL-1β inhibition (EC50)/nM
OBSERVABLE: EC50 (nM)

Use these answered entries as a reference point.
> print(dat)
                                   molecule  display.unit  experimental.result
1  Cc1cc(C(F)(F)F)cc(O)c1-c1nnc(N[C@H]2C[C@@](C)(O)C2)c2cnccc12 [Compound 45]            nM                  4.9
2  Cc1c(N[C@H]2C[C@@](C)(O)C2)nnc(-c2ccc3c(c2O)CCC3)c1C [Compound 21]            nM                 4.62
3  C[C@]1(O)C[C@@H](Nc2nnc(-c3ccc(C(F)(F)F)cc3O)c3ccncc23)C1 [Compound 24]            nM                 0.68
4  Cc1cc(N[C@@H]2CCCN(C)C2)nnc1-c1cc2c(cc1O)CCC2 [Compound 6]            nM                 18.7
5  C[C@]1(O)C[C@@H](Nc2nnc(-c3ccc(C4CC4)cc3O)c3ccccc23)C1 [Compound 30]            nM                 13.4

[1] C[C@]1(O)C[C@@H](Nc2nnc(-c3ccc(C(F)(F)F)cc3O)c3c2COCC3)C1 [Compound 42]
[2] Cc1cc(N[C@H]2C[C@@](C)(O)C2)nnc1-c1cc(F)c2c(c1O)CCC2 [Compound 37]
[3] C[C@]1(O)C[C@@H](Nc2nnc(-c3ccc(C(F)(F)F)cc3O)c3ccccc23)C1 [Compound 15]
[4] Cc1cc(N[C@@H]2CCCN(C)C2)nnc1-c1cc2ccccc2cc1O [Compound 5]
Please rank these molecules by EC50 in descending order. Order the labels as requested and give them as your answer. 2, 4, 1, 3

[1] C[C@]1(O)C[C@@H](Nc2nnc(-c3ccc(C4CC4)cc3O)c3ccncc23)C1 [Compound 41]
[2] C[C@]1(O)C[C@@H](Nc2nnc(-c3ccc4c(c3O)CCC4)c3cnccc23)C1 [Compound 40]
[3] Cc1cc(N[C@@H]2CCCN(C)C2)nnc1-c1ccc(C(F)(F)F)cc1C(F)F [Compound 8]
[4] Cc1cc(N[C@@H]2CCCN(C)C2)nnc1-c1cc2ccccc2cc1O [Compound 9]
Give the ascending ranking of the items by reported EC50. Order the labels as requested and give them as your answer. 2, 3, 1, 4

[1] CN1CCC[C@@H](Nc2nnc(-c3c(O)cc(C(F)(F)F)cc3F)c3c2COC3)C1 [Compound 35]
[2] C[C@]1(O)C[C@@H](Nc2nnc(-c3c(O)cc(C(F)(F)F)cc3F)c3ccccc23)C1 [Compound 44]
[3] Cc1cc(N[C@@H]2CCCN(C)C2)nnc1-c1ccc2c(c1O)CCCC2 [Compound 27]
Please rank these molecules by EC50 in descending order. Order the labels as requested and give them as your answer. 2, 3, 1

[P] C[C@]1(O)C[C@@H](Nc2nnc(-c3ccc4c(c3O)CCC4)c3ccccc23)C1 [Compound 31]
[Q] C[C@]1(O)C[C@@H](Nc2nnc(-c3c(O)cc(C(F)(F)F)cc3F)c3cnccc23)C1 [Compound 34]
Determine, for P and Q , which has the greater value of EC50. Label of pick, please. Q
(Q: 27 nM, P: 1.08 nM)
